Data origin, for the record: patent US9394281B2

Assay: Compound stability in human liver microsomes
Type: in vitro ADME
Settings: pH 7.4; human liver microsomes; in vivo CLint extrapolated
Procedure: Human or rat liver microsomes incubations were conducted in duplicate in polypropylene tubes. […] The concentrations of compounds in the incubation mixtures of human or rat liver microsomes were determined by a LC/MS/MS method. The ranges of the linearity in the concentration range were determined for each tested compounds. […]
Property measured: CLint scaled at 5 μM

> print(dat)
                                   molecule    assay.result
1  Cn1cc(Nc2ncc(Cl)c(NC3COC4C(NS(C)(=O)=O)COC34)n2)cn1 (stereo not drawn) [Ex. 8]  4.61 mL/min/kg
2  CN(c1nc(Nc2cnn(C)c2)ncc1Cl)C1COC2C(O)COC21 (stereo not drawn) [Ex. 1]  0.88 mL/min/kg
3  COC1COC2C(Nc3nc(Nc4cnn(C)c4)ncc3Cl)COC12 (stereo not drawn) [Ex. 6]    19 mL/min/kg
